Please go through the items and note down their IC50.
Target: human C5aR (Homo sapiens (Human), UniProt P21730)
Sequence (P21730 whole entry): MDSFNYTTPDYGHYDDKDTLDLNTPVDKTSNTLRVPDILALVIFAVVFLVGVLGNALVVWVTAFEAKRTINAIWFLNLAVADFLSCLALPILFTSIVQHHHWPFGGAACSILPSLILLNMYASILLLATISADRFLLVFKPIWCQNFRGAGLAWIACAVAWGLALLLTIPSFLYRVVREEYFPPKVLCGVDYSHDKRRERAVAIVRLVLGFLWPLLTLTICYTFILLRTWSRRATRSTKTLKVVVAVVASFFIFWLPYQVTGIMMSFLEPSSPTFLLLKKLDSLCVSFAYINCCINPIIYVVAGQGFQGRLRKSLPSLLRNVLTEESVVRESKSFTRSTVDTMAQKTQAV
Experiment: FLIPR assay: inhibition of C5a-mediated calcium mobilization
Details: stable cell line over expressing human C5aR & Gα15, human C5a at EC50 (0.1-0.25 nM)
Description: Compounds were tested for their ability to inhibit C5a-mediated calcium mobilization using a stable cell line over expressing the human C5aR & the Gα15 protein on the FLIPR (Fluorescent Imaging Plate Reader) Tetra system. Cells were maintained in culture media containing DMEM (Dulbecco's Modified Eagle Medium) with 4.5 g/L glucose, 10% fetal bovine serum, 100 U/mL, 1× non-essential amino acid, and 250 μg/mL G418 (Geneticin). […]
A number alone suffices; assume nM.

Q: # assay system human C5aR (Homo sapiens (Human), UniProt P21730): give IC50 of Cc1ccc(C(C)C)cc1N1CCc2nc(-c3cccc4[nH]cc(C)c34)nc(N3CCN(CC(N)=O)[C@H](C)C3)c2C1 [Example 24-J]
Ans: 8

Q: # assay system human C5aR (Homo sapiens (Human), UniProt P21730): give IC50 of CO[C@@H]1CCN(c2nc(-c3c(C)ccc4[nH]nc(C)c34)nc3c2CN(c2cc(C(C)C)ccc2C)CC3)C[C@H]1C [Example 19-AF]
Ans: 1

Q: # assay system human C5aR (Homo sapiens (Human), UniProt P21730): give IC50 of CO[C@H]1CCN(c2nc(-c3cccc4cnn(C)c34)nc3c2CN(c2cc(C4(C)COC4)ccc2C)CC3)CC1(C)C [Example 19-L]
Ans: 746

Q: # assay system human C5aR (Homo sapiens (Human), UniProt P21730): give IC50 of CO[C@H]1CCN(c2nc(-c3ccc(F)c4[nH]cc(C)c34)nc3c2CN(c2cc(C(C)C)ccc2C)CC3)CC1(C)C [Example 21-AF]
Ans: 4
